Test system: cellular uptake of 1 in HeLa Kyoto cells
Test: cells
Assay type: cell-based
Conditions: HeLa Kyoto, 1 h, HeLa; tpre 1 h with inhibitor, removal, tinc 0.5 h with 1 (10 µM); read-out: MIC, inhibition of cellular uptake of 1
Quantity Name: minimal effective concentration

- Compound: "O=C(O)C1CSSC1"
  minimal effective concentration: "> 2000 µM"

Under cellular uptake of 1 in HeLa Kyoto cells: minimal effective concentration value of C=CCS[S+]([O-])CC=C (centres unmarked) [compound 25, allicin, reference compound] ?
> 500 µM

Consider next the compound O[C@@H]1CSSC[C@@H]1O in the same way.
> 2000 µM

And the next one, O=C(O)CCCCC1CCSS1 (centres unmarked) ?
> 2000 µM

And for CNC(=O)[C@H](CS[S+]([O-])C[C@H](NC(=O)OC(C)(C)C)C(=O)NC)NC(=O)OC(C)(C)C (some centres unmarked) ?
> 1000 µM

Same read-out for O=C(O)CCCCC1CCS[S+]1[O-] (centres unmarked) ?
> 2000 µM

// query: O=C(O)CNC(=O)c1ccc2c(c1)S[S+]([O-])S2 (centres unmarked)
> 20 µM

Next entry: CCN1C(=O)C2SSSSC1C(=O)N2CC(=O)O (centres unmarked)
< 0.1 µM
